assayInfo: Solubility of the compound in pH 4.0 buffer solution
Assay type: physicochemical
recordedEndpoint: solubility (µg/mL)
// return numeric value only (unit: µg/mL, not printed)

For the molecule shown here, O=C(Nc1cccc(C(=O)C(=O)c2ccccn2)c1)c1cccc(Cl)c1 , give the reported solubility. 3.1

For the molecule shown here, COc1ccc(CC(=O)Nc2cccc(C(=O)C(=O)c3ccccn3)c2)cc1 , give the reported solubility. 14.1

For the molecule shown here, O=C(Nc1cccc(C(=O)C(=O)c2ccccn2)c1)c1ccc(F)cc1 , give the reported solubility. 5.1

For the molecule shown here, O=C(Nc1cccc(C(=O)C(=O)c2ccccn2)c1)c1ccc(C(F)(F)F)cc1 , give the reported solubility. 0.5

For the molecule shown here, O=C(Cc1cccs1)Nc1cccc(C(=O)C(=O)c2ccccn2)c1 , give the reported solubility. 19.6

For the molecule shown here, COc1ccc(C(=O)Nc2cccc(C(=O)C(=O)c3ccccn3)c2)cc1 , give the reported solubility. 13.7

For the molecule shown here, Cc1ccc(C(=O)Nc2cccc(C(=O)C(=O)c3ccccn3)c2)cc1 , give the reported solubility. 8.4

For the molecule shown here, O=C(COc1ccccc1)Nc1cccc(C(=O)C(=O)c2ccccn2)c1 , give the reported solubility. 16

For the molecule shown here, O=C(Nc1cccc(C(=O)C(=O)c2ccccn2)c1)c1ccc(F)c(F)c1 , give the reported solubility. 0.7

For the molecule shown here, O=C(C(=O)c1ccccn1)c1cccc(NC(=O)c2ccc(Cl)cc2Cl)c1 , give the reported solubility. 3.3

* * *

targetOrTestSystem: Liver carboxylesterase 1 (Homo sapiens, UniProt P23141)
Sequence (P23141 whole entry): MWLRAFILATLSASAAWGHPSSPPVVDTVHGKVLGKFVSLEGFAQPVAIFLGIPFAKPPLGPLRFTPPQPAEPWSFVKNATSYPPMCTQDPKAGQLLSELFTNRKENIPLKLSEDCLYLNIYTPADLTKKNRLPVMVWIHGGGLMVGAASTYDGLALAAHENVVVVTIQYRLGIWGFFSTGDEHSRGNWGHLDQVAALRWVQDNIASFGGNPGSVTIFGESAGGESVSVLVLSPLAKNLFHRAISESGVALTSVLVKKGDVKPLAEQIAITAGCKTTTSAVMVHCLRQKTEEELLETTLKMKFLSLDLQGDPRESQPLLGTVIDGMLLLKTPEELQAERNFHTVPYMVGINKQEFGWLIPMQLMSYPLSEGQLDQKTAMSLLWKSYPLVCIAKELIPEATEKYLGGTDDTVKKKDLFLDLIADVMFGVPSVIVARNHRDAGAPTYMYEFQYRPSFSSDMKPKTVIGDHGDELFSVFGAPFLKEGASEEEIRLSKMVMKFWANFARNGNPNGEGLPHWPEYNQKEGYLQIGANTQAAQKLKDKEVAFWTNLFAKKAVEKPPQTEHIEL
I'd appreciate it if you could supply Ki values for the items below.

For the compound shown here, COc1ccc(CC(=O)Nc2cccc(C(=O)C(=O)c3ccccn3)c2)cc1 , give the reported Ki. > 100000 nM

For the compound shown here, COc1ccc(C(=O)Nc2cccc(C(=O)C(=O)c3ccccn3)c2)cc1 , give the reported Ki. > 100000 nM

For the compound shown here, O=C(Nc1cccc(C(=O)C(=O)c2ccccn2)c1)c1ccc(F)cc1 , give the reported Ki. 381 nM

For the compound shown here, O=C(C(=O)c1ccccn1)c1cccc(NC(=O)c2ccc(Cl)cc2Cl)c1 , give the reported Ki. 279 nM

For the compound shown here, O=C(Nc1cccc(C(=O)C(=O)c2ccccn2)c1)c1ccc(F)c(F)c1 , give the reported Ki. 1240 nM

// data source = ChEMBL document CHEMBL1629454
